- Tgt: 6,7-dimethyl-8-ribityllumazine synthase (Mycobacterium tuberculosis, UniProt P9WHE9)
- Sequence (P9WHE9 whole entry): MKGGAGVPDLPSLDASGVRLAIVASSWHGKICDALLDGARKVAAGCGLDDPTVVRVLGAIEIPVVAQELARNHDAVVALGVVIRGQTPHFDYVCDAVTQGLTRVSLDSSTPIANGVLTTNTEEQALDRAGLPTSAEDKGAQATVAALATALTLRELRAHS
- Run Description: Inhibition of Mycobacterium tuberculosis recombinant lumazine synthase at enzyme-inhibitor complex state after 30 mins by fluorescence assay
Experimental Readout: log10 of Ki (log10 of the value in µM)

1. O=C1Nc2ccc(S(=O)(=O)NCCCCC(F)(F)P(=O)(O)O)c3cccc1c23; 2.92
2. O=C(O)CNS(=O)(=O)c1ccc2c3c(cccc13)C(=O)N2; 1.85
3. CCOC(=O)C(=O)Nc1c(Cl)[nH]c(=O)[nH]c1=O; 2.92
4. O=C1Nc2ccc(S(=O)(=O)NCCCOP(=O)(O)O)c3cccc1c23; 2.00
5. O=C1Nc2ccc(S(=O)(=O)NCCOP(=O)(O)O)c3cccc1c23; 2.41
6. O=C1Nc2ccc(S(=O)(=O)NCCCCOP(=O)(O)O)c3cccc1c23; 1.58
